- target.or.test.system: cNMP-EPAC-1 (cNMP domain of EPAC-1, 149-318) (Homo sapiens)
- Sequence (O95398 191-360): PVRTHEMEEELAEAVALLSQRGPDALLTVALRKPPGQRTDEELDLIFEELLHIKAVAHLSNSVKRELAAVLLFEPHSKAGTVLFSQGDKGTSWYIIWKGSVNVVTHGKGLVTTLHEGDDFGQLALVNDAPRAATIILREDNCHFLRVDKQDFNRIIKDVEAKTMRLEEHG
pKd: −log10 of the molar value.
property.measured: pKd

>>> recorded_value("CC1=C(O)C(=O)C=C2C1=CC=C1[C@@]2(C)CC[C@@]2(C)[C@@H]3C[C@](C)(C(=O)O)CC[C@]3(C)CC[C@]12C [celastrol]")
5.80
